- System tested: UniProt:Q29550
- Sequence (Q29550 whole entry): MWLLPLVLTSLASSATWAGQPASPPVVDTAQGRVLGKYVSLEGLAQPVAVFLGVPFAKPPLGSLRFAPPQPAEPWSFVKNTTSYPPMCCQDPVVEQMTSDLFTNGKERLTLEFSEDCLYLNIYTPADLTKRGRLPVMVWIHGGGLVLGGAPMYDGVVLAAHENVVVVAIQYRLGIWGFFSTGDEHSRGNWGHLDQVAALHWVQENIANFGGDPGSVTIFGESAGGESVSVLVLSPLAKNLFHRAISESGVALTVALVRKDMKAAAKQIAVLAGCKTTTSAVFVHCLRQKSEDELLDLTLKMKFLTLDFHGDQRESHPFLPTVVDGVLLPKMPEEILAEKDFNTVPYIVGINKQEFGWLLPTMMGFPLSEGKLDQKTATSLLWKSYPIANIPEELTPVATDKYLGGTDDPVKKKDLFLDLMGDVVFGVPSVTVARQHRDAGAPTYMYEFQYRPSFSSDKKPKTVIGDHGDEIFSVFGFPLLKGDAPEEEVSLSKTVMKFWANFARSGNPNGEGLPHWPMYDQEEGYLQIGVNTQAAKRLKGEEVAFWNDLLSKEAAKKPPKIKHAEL
- Assay explanation: Stability of the compound assessed as pig liver carboxylesterase-mediated compound hydrolysis at 10 mM measured after 12 hrs by HPLC analysis
- Type: ADME
- Condition: read-out: Drug degradation
Result type: metabolised at 12 h, 10000 µM (%)

Structure smiles string	System tested	Value unit	Value measured
CN(C)CCCNC(=O)CCC(=O)OCCCCCCSc1ccc([N+](=O)[O-])c2nonc12	UniProt:Q29550	%	33

----------
- Assay explanation: Antiproliferative activity against […] B16 cells assessed as inhibition of cell proliferation incubated for 72 hrs by MTT assay
- Format: functional, cell-based
- Condition: B16, 72 h
Label 1 when IC50 < 3000 nM; otherwise 0.

Structure smiles string	Assigned category
Cc1ccc(NC(=O)CCC(=O)OCCCCCCSc2ccc([N+](=O)[O-])c3nonc23)cc1	1
COc1ccccc1NC(=O)CCC(=O)OCCCCCCSc1ccc([N+](=O)[O-])c2nonc12	1
COc1ccc(NC(=O)CCC(=O)OCCCCCCSc2ccc([N+](=O)[O-])c3nonc23)cc1	1
O=C(CCC(=O)OCCCCCCSc1ccc([N+](=O)[O-])c2nonc12)NCCN1CCCC1	0
O=C(CCC(=O)OCCCCCCSc1ccc([N+](=O)[O-])c2nonc12)Nc1ccccc1	1
O=C(CCC(=O)OCCCCCCSc1ccc([N+](=O)[O-])c2nonc12)Nc1cccc(Cl)c1	0
CN(C)CCNC(=O)CCC(=O)OCCCCCCSc1ccc([N+](=O)[O-])c2nonc12	1

Reference source: ChEMBL document CHEMBL4732174
